Cited source: ChEMBL document CHEMBL3414543

# system_tested: Polyunsaturated fatty acid 5-lipoxygenase (Homo sapiens) (UniProt P09917)
# Sequence (whole entry): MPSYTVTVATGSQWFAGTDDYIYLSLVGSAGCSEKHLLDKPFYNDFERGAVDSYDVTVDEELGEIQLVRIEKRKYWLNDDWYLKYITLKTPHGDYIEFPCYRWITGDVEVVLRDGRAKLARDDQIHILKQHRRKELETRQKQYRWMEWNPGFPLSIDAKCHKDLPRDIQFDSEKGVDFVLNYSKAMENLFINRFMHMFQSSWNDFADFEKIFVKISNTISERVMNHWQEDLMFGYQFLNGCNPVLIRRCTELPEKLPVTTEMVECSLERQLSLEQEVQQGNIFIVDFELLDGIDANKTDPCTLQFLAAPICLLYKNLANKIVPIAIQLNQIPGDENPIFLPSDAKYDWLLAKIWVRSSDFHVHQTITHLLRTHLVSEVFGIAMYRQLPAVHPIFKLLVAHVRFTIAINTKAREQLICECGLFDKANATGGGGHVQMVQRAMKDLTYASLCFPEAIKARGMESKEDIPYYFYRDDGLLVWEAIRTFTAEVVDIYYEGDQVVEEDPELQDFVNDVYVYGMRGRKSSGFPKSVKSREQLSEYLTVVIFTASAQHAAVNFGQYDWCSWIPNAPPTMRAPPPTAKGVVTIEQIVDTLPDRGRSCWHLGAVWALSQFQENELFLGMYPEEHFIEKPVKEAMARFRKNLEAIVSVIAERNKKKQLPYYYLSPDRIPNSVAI
# assay_summary: Inhibition of human recombinant 5-LOX expressed in Escherichia coli BL21 assessed as remaining activity at 10 uM incubated for 10 mins in presence of arachidonic acid by RP-HPLC based cell-free assay
readout_type: Activity (%)

smiles_structure | readout_type | measurement_units | reported_value
CCCCCCC1=C(O)C(=O)C=C(OC)C1=O | Activity | % | 71.1
CCCCC1=C(OC)C(OC)=CC(=O)C1=O | Activity | % | 82.9
CCCCCCCCCCCCCCCCC1=C(O)C(=O)C=C(OC)C1=O | Activity | % | 60.1
COC1=CC(=O)C(O)=C(C/C=C(\C)CCC=C(C)C)C1=O | Activity | % | 73.6
CCCCC1=C(O)C(=O)C=C(OC)C1=O | Activity | % | 70.5
CCCCC1=C(O)C(=O)C=C(O)C1=O | Activity | % | 65.4

----------
# system_tested: Polyunsaturated fatty acid 5-lipoxygenase (Homo sapiens)
# assay_summary: Inhibition of human 5-LOX by intact cell based assay

smiles_structure | IC50 / nM
CCCCCCCCCCCC1=C(O)C(=O)C=C(O)C1=O | 800

----------
# system_tested: Polyunsaturated fatty acid 5-lipoxygenase (Homo sapiens, UniProt P09917)
# assay_summary: Inhibition of 5-LOX in A23187-stimulated human blood PMNL assessed as reduction in lipoxygenase products formation in presence of arachidonic acid pre-incubated for 15 mins followed by stimulation with A23187 for 10 mins by RP-HPLC based cell based assay

molecule | measurement_units | qual | IC50
CCCCCCCCCCCCCCCCC1=C(O)C(=O)C=C(OC)C1=O | nM | = | 1100
CCCCCCCCC1=C(OC)C(OC)=CC(=O)C1=O | nM | = | 820
COC1=CC(=O)C(O)=C(C/C=C(\C)CCC=C(C)C)C1=O | nM | > | 10000
CCCCCCCCCCCC1=C(OC)C(=O)C=C(OC)C1=O | nM | = | 590
CCCCCCCCCCC1=C(O)C(=O)C=C(OC)C1=O | nM | = | 2700
CCCCC1=C(O)C(=O)C=C(O)C1=O | nM | > | 10000
CCCCCCCCCCCCCC1=C(OC)C(OC)=CC(=O)C1=O | nM | = | 50
CCCCCCCCCCCCCCC1=C(O)C(=O)C=C(O)C1=O | nM | = | 5100
COC1=CC(=O)C(=O)C(C/C=C(\C)CCC=C(C)C)=C1OC | nM | = | 390
CCCCCCCCCCCCCC1=C(O)C(=O)C=C(OC)C1=O [Sorgoleone-364] | nM | = | 2300

----------
# system_tested: Polyunsaturated fatty acid lipoxygenase ALOX12 (Homo sapiens)
# assay_summary: Inhibition of 12-LOX in human blood PMNL assessed as remaining activity by measuring 12-HETE synthesis at 10 uM

molecule | Activity
CCCCCCCCCCCCCC1=C(OC)C(OC)=CC(=O)C1=O | 78.5%
CCCCCCCCCCCCCCC1=C(O)C(=O)C=C(O)C1=O | 101%
COC1=CC(=O)C(OC)=C(C/C=C(\C)CCC=C(C)C)C1=O | 90.3%
CCCCCCCCCCCCCCCCC1=C(OC)C(=O)C=C(OC)C1=O | 121%
CCCCCCCCC1=C(O)C(=O)C=C(OC)C1=O | 86.8%
CCCCCCCCCCCC1=C(O)C(=O)C=C(O)C1=O [EMBELIN] | 74.9%
CCCCCCCCCCCCC1=C(O)C(=O)C=C(O)C1=O | 90.6%
CCCCCCCCCCCC1=C(O)C(=O)C=C(OC)C1=O [5-O-METHYLEMBELIN] | 138%
CCCCCCCCCCCCCCC1=C(O)C(=O)C=C(OC)C1=O | 114%
CCCCCCCCCCCCCCCCC1=C(O)C(=O)C=C(O)C1=O | 117%
CCCCCCCCC1=C(OC)C(=O)C=C(OC)C1=O | 89.6%
CCCCCCCCCCCCCC1=C(OC)C(=O)C=C(OC)C1=O | 58.8%
CCCCCCCCCCC1=C(OC)C(OC)=CC(=O)C1=O | 133%
CCCCCCCCCCCC1=C(OC)C(=O)C=C(OC)C1=O | 161%
CCCCCCCCC1=C(O)C(=O)C=C(O)C1=O | 75.7%
CCCCCCCCCCCC1=C(OC)C(OC)=CC(=O)C1=O | 236%
CCCCCCCCCCCCCC1=C(O)C(=O)C=C(OC)C1=O [Sorgoleone-364] | 73.2%

----------
# system_tested: Polyunsaturated fatty acid 5-lipoxygenase (Homo sapiens, UniProt P09917)
# assay_summary: Inhibition of 5-LOX in A23187-stimulated human blood PMNL assessed as reduction in lipoxygenase products formation pre-incubated for 15 mins followed by stimulation with A23187 for 10 mins by RP-HPLC based cell based assay
pIC50: −log10 of the molar value.
# pIC50 values compiled below

molecule | qual | pIC50
COC1=CC(=O)C(OC)=C(C/C=C(\C)CC/C=C(\C)CCC=C(C)C)C1=O | = | 6.51
CCCCCCCCCCCCCCC1=C(OC)C(OC)=CC(=O)C1=O | = | 6.92
CCCCCCCCCCC1=C(OC)C(OC)=CC(=O)C1=O | = | 7.40
CCCCCCCCCCCCCC1=C(OC)C(OC)=CC(=O)C1=O | = | 6.92
CCCCCCCCCCCC1=C(O)C(=O)C=C(OC)C1=O [5-O-METHYLEMBELIN] | = | 6.17
CCCCCCCCC1=C(OC)C(=O)C=C(OC)C1=O | = | 6.49
CCCCCCCCCCCCCCCCC1=C(O)C(=O)C=C(OC)C1=O | = | 6.00
CCCCCCCCC1=C(O)C(=O)C=C(O)C1=O | < | 5.00
CC(C)=CCC/C(C)=C/CC1=C(O)C(=O)C=C(O)C1=O | < | 5.00
CCCCC1=C(OC)C(OC)=CC(=O)C1=O | = | 5.66
COC1=CC(=O)C(=O)C(C/C=C(\C)CC/C=C(\C)CCC=C(C)C)=C1OC | = | 6.82

----------
# system_tested: Polyunsaturated fatty acid lipoxygenase ALOX12 (Homo sapiens) (UniProt P18054)
# Sequence (whole entry): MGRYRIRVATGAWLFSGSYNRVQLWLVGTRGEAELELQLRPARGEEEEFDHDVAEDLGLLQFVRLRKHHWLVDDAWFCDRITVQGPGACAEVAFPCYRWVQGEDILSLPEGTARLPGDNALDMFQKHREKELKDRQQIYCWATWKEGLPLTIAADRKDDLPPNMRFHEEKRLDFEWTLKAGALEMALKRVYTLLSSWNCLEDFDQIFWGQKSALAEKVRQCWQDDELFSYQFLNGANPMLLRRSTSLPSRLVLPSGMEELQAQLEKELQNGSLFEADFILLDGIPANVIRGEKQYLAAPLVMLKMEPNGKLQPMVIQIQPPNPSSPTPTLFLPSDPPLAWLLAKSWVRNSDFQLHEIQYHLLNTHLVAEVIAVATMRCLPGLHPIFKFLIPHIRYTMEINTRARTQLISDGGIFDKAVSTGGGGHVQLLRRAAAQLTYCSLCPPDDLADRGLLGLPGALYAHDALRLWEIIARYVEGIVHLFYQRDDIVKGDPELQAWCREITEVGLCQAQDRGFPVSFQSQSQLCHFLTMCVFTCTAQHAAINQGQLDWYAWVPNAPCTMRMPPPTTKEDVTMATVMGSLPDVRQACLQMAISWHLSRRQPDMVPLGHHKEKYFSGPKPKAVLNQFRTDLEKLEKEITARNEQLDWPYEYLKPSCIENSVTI
# assay_summary: Inhibition of 12-LOX in human blood PMNL assessed as remaining activity by measuring 12-HETE synthesis at 10 uM

smiles_structure | system_tested | Activity / %
COC1=CC(=O)C(OC)=C(C/C=C(\C)CC/C=C(\C)CCC=C(C)C)C1=O | Polyunsaturated fatty acid lipoxygenase ALOX12 (Homo sapiens) (UniProt P18054) | 139
CCCCC1=C(OC)C(=O)C=C(OC)C1=O | Polyunsaturated fatty acid lipoxygenase ALOX12 (Homo sapiens) (UniProt P18054) | 103
COC1=CC(=O)C(O)=C(C/C=C(\C)CC/C=C(\C)CCC=C(C)C)C1=O | Polyunsaturated fatty acid lipoxygenase ALOX12 (Homo sapiens) (UniProt P18054) | 108
CCCCCCCCCCCCCCC1=C(OC)C(=O)C=C(OC)C1=O | Polyunsaturated fatty acid lipoxygenase ALOX12 (Homo sapiens) (UniProt P18054) | 84.5
CCCCCCCCCCC1=C(OC)C(=O)C=C(OC)C1=O | Polyunsaturated fatty acid lipoxygenase ALOX12 (Homo sapiens) (UniProt P18054) | 144
CCCCCCCCCCCCCCCC1=C(OC)C(=O)C=C(OC)C1=O | Polyunsaturated fatty acid lipoxygenase ALOX12 (Homo sapiens) (UniProt P18054) | 87.3
CCCCCCC1=C(O)C(=O)C=C(OC)C1=O | Polyunsaturated fatty acid lipoxygenase ALOX12 (Homo sapiens) (UniProt P18054) | 44.5
N#C/C(=C\c1ccc(O)c(O)c1)C(=O)OC/C=C/c1ccccc1 | Polyunsaturated fatty acid lipoxygenase ALOX12 (Homo sapiens) (UniProt P18054) | 0.91
CCCCCCCCCCCCCCCCC1=C(O)C(=O)C=C(OC)C1=O | Polyunsaturated fatty acid lipoxygenase ALOX12 (Homo sapiens) (UniProt P18054) | 138
CCCCCCCCCCCCC1=C(O)C(=O)C=C(OC)C1=O | Polyunsaturated fatty acid lipoxygenase ALOX12 (Homo sapiens) (UniProt P18054) | 148
CCCCCCCCCCCCCCCC1=C(O)C(=O)C=C(OC)C1=O | Polyunsaturated fatty acid lipoxygenase ALOX12 (Homo sapiens) (UniProt P18054) | 92.8
CCCCCCCCCCCCCCCC1=C(OC)C(OC)=CC(=O)C1=O | Polyunsaturated fatty acid lipoxygenase ALOX12 (Homo sapiens) (UniProt P18054) | 88.9
COC1=CC(=O)C(O)=C(C/C=C(\C)CCC=C(C)C)C1=O | Polyunsaturated fatty acid lipoxygenase ALOX12 (Homo sapiens) (UniProt P18054) | 101
CCCCCCCCCCCCC1=C(OC)C(=O)C=C(OC)C1=O | Polyunsaturated fatty acid lipoxygenase ALOX12 (Homo sapiens) (UniProt P18054) | 138
CCCCCCC1=C(OC)C(=O)C=C(OC)C1=O | Polyunsaturated fatty acid lipoxygenase ALOX12 (Homo sapiens) (UniProt P18054) | 102
CCCCCCCCCCCCCCCC1=C(O)C(=O)C=C(O)C1=O | Polyunsaturated fatty acid lipoxygenase ALOX12 (Homo sapiens) (UniProt P18054) | 87.7
CCCCCCCCCCCCC1=C(OC)C(OC)=CC(=O)C1=O | Polyunsaturated fatty acid lipoxygenase ALOX12 (Homo sapiens) (UniProt P18054) | 135
CC(C)=CCC/C(C)=C/CC1=C(O)C(=O)C=C(O)C1=O | Polyunsaturated fatty acid lipoxygenase ALOX12 (Homo sapiens) (UniProt P18054) | 80.5
CCCCCCCCC1=C(OC)C(OC)=CC(=O)C1=O | Polyunsaturated fatty acid lipoxygenase ALOX12 (Homo sapiens) (UniProt P18054) | 59.3
CCCCCCCCCCC1=C(O)C(=O)C=C(OC)C1=O | Polyunsaturated fatty acid lipoxygenase ALOX12 (Homo sapiens) (UniProt P18054) | 122
CCCCC1=C(OC)C(OC)=CC(=O)C1=O | Polyunsaturated fatty acid lipoxygenase ALOX12 (Homo sapiens) (UniProt P18054) | 85.8
CC(C)=CCC/C(C)=C/CC/C(C)=C/CC1=C(O)C(=O)C=C(O)C1=O | Polyunsaturated fatty acid lipoxygenase ALOX12 (Homo sapiens) (UniProt P18054) | 78.3
CCCCC1=C(O)C(=O)C=C(O)C1=O | Polyunsaturated fatty acid lipoxygenase ALOX12 (Homo sapiens) (UniProt P18054) | 93.3
CCCCCCCCCCC1=C(O)C(=O)C=C(O)C1=O | Polyunsaturated fatty acid lipoxygenase ALOX12 (Homo sapiens) (UniProt P18054) | 76
CCCCCCC1=C(OC)C(OC)=CC(=O)C1=O | Polyunsaturated fatty acid lipoxygenase ALOX12 (Homo sapiens) (UniProt P18054) | 18.6
